Recorded protein stability index for the following variants
B1: NEUROD6 (parent)
chain: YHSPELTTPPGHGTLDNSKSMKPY

- Variants of: B1
- EXPERIMENTAL_DETAILS: protein stability index of a GFP-peptide fusion (GPS, HEK-293T) (PSI 1-6); higher = more stable;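 note: lentivirally expressed fusions sorted by FACS into six bins by GFP to DsRed ratio, PSI derived from sequencing read proportions per bin multiplied by bin number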
- MEASUREMENT_CONDITIONS: c terminus: a fixed tail appended
READOUT_LABEL: protein stability index

INSERT INTO assay_data (alteration, readout_label, measured_number) VALUES
  ('L6H', 'protein stability index', 3.28),
  ('P23N', 'protein stability index', 2.36),
  ('K22N', 'protein stability index', 2.14),
  ('P4T', 'protein stability index', 2.08),
  ('N17A', 'protein stability index', 2.51),
  ('S18K', 'protein stability index', 2.43),
  ('L15C', 'protein stability index', 2.1),
  ('S3C', 'protein stability index', 2.33),
  ('E5Y', 'protein stability index', 2.32);

// data source = the supplement of paper PMC10567573
